Tested on: myosin ATPase, Rabbit Psoas myofibrils
Run Description: Myofibril ATPase assay, rabbit psoas (skeletal) myofibrils
Type: biochemical
Cond: concentration required to reduce myosin ATP-ase activity by 25%; Rabbit Psoas Prep pCa 25 GEOM_MEAN
Rabbit Psoas EC25 (Y75 value) under 60 µM gets condition met, anything at or over 60 µM gets condition not met.

>>> class_label("C[C@H](NC(=O)[C@H](CC1CC1)n1c(=O)[nH]c2ccccc2c1=O)c1ccc(F)cc1F (single isomer, unassigned)")
"condition not met"
>>> class_label("CCC(C(=O)N[C@@H](C)c1ccc(F)cc1F)n1c(=O)[nH]c2ccccc2c1=O (single isomer, unassigned)")
"condition not met"
>>> class_label("C[C@H](NC(=O)Cn1c(=O)[nH]c2cccc(F)c2c1=O)c1ncc(C#N)cc1F (single isomer, unassigned)")
"condition met"
>>> class_label("C[C@H](NC(=O)C(c1cccnc1)n1c(=O)[nH]c2ccccc2c1=O)c1ccc(F)cc1F (single isomer, unassigned)")
"condition not met"
>>> class_label("CC(NC(=O)Cn1c(=O)[nH]c2ccccc2c1=O)c1ccc(F)cn1 (stereo not shown)")
"condition not met"
>>> class_label("CCC(NC(=O)Cn1c(=O)[nH]c2ccccc2c1=O)c1ccc(F)cc1F (stereo not shown)")
"condition met"
>>> class_label("CC(C)C(C(=O)N[C@@H](C)c1ccc(F)cc1F)n1c(=O)[nH]c2ccccc2c1=O (single isomer, unassigned)")
"condition not met"
>>> class_label("C[C@H](NC(=O)C(CO)n1c(=O)[nH]c2ccccc2c1=O)c1ccc(F)cc1F (single isomer, unassigned)")
"condition met"
>>> class_label("O=C(Cn1c(=O)[nH]c2ccccc2c1=O)N[C@@H]1CCCc2cc(F)cc(F)c21 (single isomer, unassigned)")
"condition met"
>>> class_label("CC(NC(=O)Cn1c(=O)[nH]c2ccccc2c1=O)c1cnccn1 (stereo not shown)")
"condition not met"
>>> class_label("CC(C)CN(C(=O)Cn1c(=O)[nH]c2ccccc2c1=O)C(C)c1ccc(F)cc1F (stereo not shown)")
"condition not met"
>>> class_label("Cc1c(F)ccc2[nH]c(=O)n(CC(=O)N[C@H](C)c3ncc(C#N)cn3)c(=O)c12 (single isomer, unassigned)")
"condition met"
>>> class_label("C[C@H](NC(=O)Cn1c(=O)[nH]c2ccccc2c1=O)c1ccc(Cl)cc1 (single isomer, unassigned)")
"condition met"
>>> class_label("C[C@H](NC(=O)C1(n2c(=O)[nH]c3cccc(C#N)c3c2=O)CC1)c1ncc(C#N)cc1F (single isomer, unassigned)")
"condition met"
>>> class_label("COc1cccc2[nH]c(=O)n(CC(=O)N[C@@H](C)c3ccc(F)cc3F)c(=O)c12")
"condition met"
>>> class_label("C[C@H](NC(=O)Cn1c(=O)[nH]c2cccc(F)c2c1=O)c1ncc(C#N)cn1 (single isomer, unassigned)")
"condition met"
>>> class_label("C[C@@H](NC(=O)Cn1c(=O)[nH]c2ccccc2c1=O)c1ccncc1F (single isomer, unassigned)")
"condition met"
>>> class_label("Cc1cc(C#N)cnc1[C@H](C)NC(=O)Cn1c(=O)[nH]c2ccc(F)c(F)c2c1=O (single isomer, unassigned)")
"condition met"
>>> class_label("O=C(Cn1c(=O)[nH]c2ccccc2c1=O)NC(c1ccc(Cl)cc1)c1cccs1 (stereo not shown)")
"condition not met"
>>> class_label("C[C@H](NC(=O)[C@@H](C)n1c(=O)[nH]c2ccc(F)cc2c1=O)c1ccc(F)cc1F")
"condition met"
>>> class_label("O=C(Cn1c(=O)[nH]c2ccccc2c1=O)N[C@H]1CCc2cc(F)cc(F)c21 (single isomer, unassigned)")
"condition met"
>>> class_label("C[C@H](NC(=O)Cn1c(=O)[nH]c2ccc(F)cc2c1=O)c1cnc(C#N)nc1 (single isomer, unassigned)")
"condition met"
>>> class_label("Cc1c(F)ccc2[nH]c(=O)n(CC(=O)N[C@H]3COc4cc(C#N)cnc43)c(=O)c12 (single isomer, unassigned)")
"condition met"
>>> class_label("CC(NC(=O)Cn1c(=O)[nH]c2ccccc2c1=O)c1ccco1 (stereo not shown)")
"condition not met"
>>> class_label("Cc1ccc2[nH]c(=O)n(CC(=O)N[C@@H](C)c3ccc(F)cc3F)c(=O)c2c1")
"condition met"
>>> class_label("C[C@H](NC(=O)Cn1c(=O)[nH]c2cnccc2c1=O)c1ccc(F)cc1F")
"condition met"
>>> class_label("C[C@@H](NC(=O)C1(n2c(=O)[nH]c3cccc(C#N)c3c2=O)CC1)c1ncc(C#N)cc1F (single isomer, unassigned)")
"condition not met"
